Values compiled from paper PMC7819943.

- System: OsWRKY34 (Oryza sativa, UniProt Q0JBA9 1-250)
- Sequence (Q0JBA9 entry or part of it): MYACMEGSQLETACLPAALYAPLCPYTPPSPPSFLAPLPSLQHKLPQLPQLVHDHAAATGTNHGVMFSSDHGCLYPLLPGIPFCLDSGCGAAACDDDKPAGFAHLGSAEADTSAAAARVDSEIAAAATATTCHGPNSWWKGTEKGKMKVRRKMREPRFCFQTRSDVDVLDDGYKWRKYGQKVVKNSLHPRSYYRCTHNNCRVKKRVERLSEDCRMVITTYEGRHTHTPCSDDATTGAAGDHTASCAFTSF
- Protocol: protein-binding microarray (RPBM); PBS, 2% BSA, 51.3 ng/ul salmon testes DNA, 50 uM zinc acetate, 200 nM TF, 25 C, 1 h; high values mean tight binding
- Setup conditions: protein: recombinant; tags: N-terminal polyhistidine and DsRed monomer fusion (pET32a); label: CyDye5-dUTP incorporated in the synthesized complementary strand; 3' TTTTT single-stranded linker to array surface; dsDNA, one strand shown
Over roughly 68,000 sequences, “fluorescence intensity (a.u.)” has its median near 9,100; the highest 2% begin near 16,000. For the sample, the highest values were picked, then their nearest neighbours and some sequences at random.
Outcome measure: binding signal

Example sequences with recorded binding signal:
>  <Ordered residues>
TTTCTTGGTCTTTGGGTTAAATGTGGTTATGCCTTATATTCGGAGTCACCTAGTGCAG

>  <Outcome measure>
binding signal

>  <Recorded measurement>
8260 fluorescence intensity (a.u.)

$$$$
>  <Ordered residues>
ATCATTCCTAACTGCCTGGTCGTACTTCTCTGTATTTTGTCGGAGTCACCTAGTGCAG

>  <Outcome measure>
binding signal

>  <Recorded measurement>
17500 fluorescence intensity (a.u.)

$$$$
>  <Ordered residues>
AACTCACTCTCGCGTTCGCGTCGTCTCCGGCCTTTTCTTGCGGAGTCACCTAGTGCAG

>  <Outcome measure>
binding signal

>  <Recorded measurement>
8870 fluorescence intensity (a.u.)

$$$$
>  <Ordered residues>
ACTGTCTCGTATTCTATTCCTCATTCCTTCTCTTTTTTTCCGGAGTCACCTAGTGCAG

>  <Outcome measure>
binding signal

>  <Recorded measurement>
19600 fluorescence intensity (a.u.)

$$$$
>  <Ordered residues>
TTTCTCCGTCGTCTTCCTCTACTGGTTCTATGTCTTCTCACGGAGTCACCTAGTGCAG

>  <Outcome measure>
binding signal

>  <Recorded measurement>
18800 fluorescence intensity (a.u.)

$$$$
>  <Ordered residues>
GTTTTGTATGGTTCTCTGGATATATTACTGCCTGTAAATTCGGAGTCACCTAGTGCAG

>  <Outcome measure>
binding signal

>  <Recorded measurement>
8320 fluorescence intensity (a.u.)

$$$$
>  <Ordered residues>
CTTGGTTTCTTGTTGTGCAACTCTCGTCGTCTCGTTCATCCGGAGTCACCTAGTGCAG

>  <Outcome measure>
binding signal

>  <Recorded measurement>
11500 fluorescence intensity (a.u.)

$$$$
>  <Ordered residues>
GTAATGGCATATTTGCAATTATCCCTTTGTTTATTTATTTCGGAGTCACCTAGTGCAG

>  <Outcome measure>
binding signal

>  <Recorded measurement>
8510 fluorescence intensity (a.u.)

$$$$

Note: attention shifts to another entry.
Value of binding signal reported for the sequence TCCTTTCCTACATGTCGCCTTTGCCGTCGCCTCAACCACACGGAGTCACCTAGTGCAG is 14200 fluorescence intensity (a.u.)

====

- System: OsWRKY34 (Oryza sativa, UniProt Q0JBA9 1-250)
- Protocol: protein-binding microarray (RPBM); PBS, 2% BSA, 51.3 ng/ul salmon testes DNA, 50 uM zinc acetate, 200 nM TF, 25 C, 1 h; high values mean tight binding
- Setup conditions: protein: recombinant; tags: N-terminal polyhistidine and DsRed monomer fusion (pET32a); label: CyDye5-dUTP incorporated in the synthesized complementary strand; 3' TTTTT single-stranded linker to array surface; dsDNA, one strand shown
The full ranking holds about 68,000 sequences; the median of “fluorescence intensity (a.u.)” is about 9,100, and the highest 2% start at about 16,000. Many of the other results were omitted from the sample, so the highest values are more common in it than they were.
Outcome measure: binding signal

>  <Ordered residues>
GGTTTTAAAGGGGTTCCATACACGTATGATAATAAGAGACCGGAGTCACCTAGTGCAG

>  <System>
OsWRKY34 (Oryza sativa, UniProt Q0JBA9 1-250)

>  <binding signal>
8180 fluorescence intensity (a.u.)

$$$$
>  <Ordered residues>
GCACGCATGCAGTTCCTTGACCAATTCTCACATCAACCACCGGAGTCACCTAGTGCAG

>  <System>
OsWRKY34 (Oryza sativa, UniProt Q0JBA9 1-250)

>  <binding signal>
9100 fluorescence intensity (a.u.)

$$$$
>  <Ordered residues>
TTCATGGAACATTCACGTGGATCATTCTCTCTCTCTCTCTCGGAGTCACCTAGTGCAG

>  <System>
OsWRKY34 (Oryza sativa, UniProt Q0JBA9 1-250)

>  <binding signal>
8100 fluorescence intensity (a.u.)

$$$$
>  <Ordered residues>
ACGCGCCGCAACGCAACTTCCATGGACGCATCTGGACCACCGGAGTCACCTAGTGCAG

>  <System>
OsWRKY34 (Oryza sativa, UniProt Q0JBA9 1-250)

>  <binding signal>
8130 fluorescence intensity (a.u.)

$$$$
>  <Ordered residues>
CGCAACCCCAAGCACTGGTGTTCTACATTCAATCAATCATCGGAGTCACCTAGTGCAG

>  <System>
OsWRKY34 (Oryza sativa, UniProt Q0JBA9 1-250)

>  <binding signal>
38500 fluorescence intensity (a.u.)

$$$$
>  <Ordered residues>
ACATCCATCCACTCAACCCATTCTACCGTATTAAGCCAATCGGAGTCACCTAGTGCAG

>  <System>
OsWRKY34 (Oryza sativa, UniProt Q0JBA9 1-250)

>  <binding signal>
8192 fluorescence intensity (a.u.)

$$$$
>  <Ordered residues>
TTAGTTTTGTTAGATCGTCGATTTTGATTAGTGCGTTTGACGGAGTCACCTAGTGCAG

>  <System>
OsWRKY34 (Oryza sativa, UniProt Q0JBA9 1-250)

>  <binding signal>
9190 fluorescence intensity (a.u.)

$$$$
>  <Ordered residues>
TTGTACACTTATGATTTCCTATTTTTGCATATGATTTTGTCGGAGTCACCTAGTGCAG

>  <System>
OsWRKY34 (Oryza sativa, UniProt Q0JBA9 1-250)

>  <binding signal>
8050 fluorescence intensity (a.u.)

$$$$

Now consider the entry below.
Documented binding signal of CGCTCATCTATTTCTTTGTAGTACAACGCAGGCGCTCACACGGAGTCACCTAGTGCAG : 8090 fluorescence intensity (a.u.)
